assay.notes: In Vitro Serum Half-Life Assay
condition.parameters: mouse
Residues, ends and D or L forms follow the SMILES beside them. *: point of attachment. X2 = OC[C@H]1O[C@@H](O[C@H]2[C@H](O)[C@@H](O)[C@H](*)O[C@@H]2CO)[C@H](O)[C@@H](O)[C@H]1O

compound	readout.unit	half-life
CC[C@H](C)[C@H](NC(=O)[C@H](Cc1ccc(O)cc1)NC(=O)[C@@H](NC(=O)[C@H](CCCNC(=N)N)NC(=O)[C@@H](N)CC(=O)O)C(C)C)C(=O)N[C@@H](Cc1c[nH]cn1)C(=O)N[C@@H](CO[C@@H]1O[C@H](CO)[C@@H](O[C@@H]2O[C@H](CO)[C@H](O)[C@H](O)[C@H]2O)[C@H](O)[C@H]1O)C(N)=O [Ang 1-6-Ser(OLac)-NH2] (H-DRVYIHS(X2)-NH2)	h	5.8

---

assay.notes: In vivo serum and CSF concentration after subcutaneous injection
condition.parameters: mouse, serum, sc, 10 mg/kg
Residues, ends and D or L forms follow the SMILES beside them. *: point of attachment. X1 = OC[C@H]1OC(*)[C@H](O)[C@@H](O)[C@@H]1O

molecule	Cmax
CC[C@H](C)[C@H](NC(=O)[C@H](Cc1ccc(O)cc1)NC(=O)[C@@H](NC(=O)[C@H](CCCNC(=N)N)NC(=O)[C@@H](N)CC(=O)O)C(C)C)C(=O)N[C@@H](Cc1c[nH]cn1)C(=O)N[C@@H](COC1O[C@H](CO)[C@@H](O)[C@H](O)[C@H]1O)C(N)=O (stereo partly shown) [PN-A5, Ang 1-6-Ser(OGlc)-NH2] (H-DRVYIHS(X1)-NH2)	~3.5 µM

Value source: patent US10183055B2
